# Test system: Klebsiella oxytoca
# Assay Method Text: Antibacterial activity against Klebsiella oxytoca assessed as diameter of inhibition zone measured after 24 hrs by agar disc diffusion method; further: test concentration or dose not given here
# Assay type: functional
Measurement Name: diameter of the inhibition zone (DIZ) (mm)
Give just the numeric value; mm need not be written.

These recorded examples may help you get a feel for the data.
Smiles Repr | Assayed Target | Unit Of Measurement | diameter of the inhibition zone (DIZ)
Nc1ccc(C#Cc2ccc(C(=O)N3CCC[C@H]3C(=O)NO)cc2)cc1 | Klebsiella oxytoca | mm | 7
O=C(NO)[C@@H]1CCCN1C(=O)c1ccc(C#Cc2ccc(CN3CCSCC3)cc2)cc1 | Klebsiella oxytoca | mm | 11
O=C(NO)[C@H]1CCCN1C(=O)c1ccc(C#Cc2ccc(CN3CCOCC3)cc2)cc1 | Klebsiella oxytoca | mm | 8
Nc1ccc(C#Cc2ccc(C(=O)N3C[C@H](O)C[C@H]3C(=O)NO)cc2)cc1 | Klebsiella oxytoca | mm | 7

Please turn your attention to the following entry.
Task item: Provide only the value of recorded diameter of the inhibition zone (DIZ) for `O=C(NO)[C@@H]1C[C@H](O)CN1C(=O)c1ccc(C#Cc2ccc(CN3CCCCC3)cc2)cc1`
Reply: 9
